meta.source: ChEMBL document CHEMBL1155520

tested on: Streptococcus pneumoniae; assay: Antimicrobial activity against macrolide-resistant Streptococcus pneumoniae Ci137; type: functional
ATTRIBUTE_MEASURED: MIC

STRUCTURE_AS_SMILES | MIC
CC[C@H]1OC(=O)[C@H](C)[C@@H](O[C@H]2C[C@@](C)(OC)[C@@H](OC(=O)CCN[C@H](C)c3ccc([N+](=O)[O-])cc3)[C@H](C)O2)[C@H](C)[C@@H](O[C@@H]2O[C@H](C)C[C@H](N(C)C)[C@H]2O)[C@](C)(O)C[C@@H](C)NC(=O)[C@H](C)[C@@H](O)[C@]1(C)O | 4 µg/mL
CC[C@H]1OC(=O)[C@H](C)[C@@H](O[C@H]2C[C@@](C)(OC)[C@@H](OC(=O)CCNCC(=O)Nc3ccc4cccnc4c3)[C@H](C)O2)[C@H](C)[C@@H](O[C@@H]2O[C@H](C)C[C@H](N(C)C)[C@H]2O)[C@](C)(OC)C[C@@H](C)NC(=O)[C@H](C)[C@@H](O)[C@]1(C)O | 4 µg/mL

Shifting focus to the molecule that follows.
Exercise: Return reported MIC; argument: CC[C@H]1OC(=O)[C@H](C)[C@@H](O[C@H]2C[C@@](C)(OC)[C@@H](OC(=O)CCN[C@@H](C)c3ccc([N+](=O)[O-])cc3)[C@H](C)O2)[C@H](C)[C@@H](O[C@@H]2O[C@H](C)C[C@H](N(C)C)[C@H]2O)[C@](C)(O)C[C@@H](C)NC(=O)[C@H](C)[C@@H](O)[C@]1(C)O
Key: 4 µg/mL
